Here the recorded Emax is given for each entry.
- target.or.test.system: Human AMPK α2ß2γ1 (Homo sapiens, UniProt O43741+P54646)
- Construct: The full length cDNAs of human AMPK ß2 (NM_005399.3) and human AMPK α2 (NM_006252.3); The full length cDNAs of human AMPK ß2 (NM_005399.3); 6xHis (N); made in house; host or cells: Escherichia coli BL21 CodonPlus (DE3)-RIL
- Sequence (P54646 whole entry): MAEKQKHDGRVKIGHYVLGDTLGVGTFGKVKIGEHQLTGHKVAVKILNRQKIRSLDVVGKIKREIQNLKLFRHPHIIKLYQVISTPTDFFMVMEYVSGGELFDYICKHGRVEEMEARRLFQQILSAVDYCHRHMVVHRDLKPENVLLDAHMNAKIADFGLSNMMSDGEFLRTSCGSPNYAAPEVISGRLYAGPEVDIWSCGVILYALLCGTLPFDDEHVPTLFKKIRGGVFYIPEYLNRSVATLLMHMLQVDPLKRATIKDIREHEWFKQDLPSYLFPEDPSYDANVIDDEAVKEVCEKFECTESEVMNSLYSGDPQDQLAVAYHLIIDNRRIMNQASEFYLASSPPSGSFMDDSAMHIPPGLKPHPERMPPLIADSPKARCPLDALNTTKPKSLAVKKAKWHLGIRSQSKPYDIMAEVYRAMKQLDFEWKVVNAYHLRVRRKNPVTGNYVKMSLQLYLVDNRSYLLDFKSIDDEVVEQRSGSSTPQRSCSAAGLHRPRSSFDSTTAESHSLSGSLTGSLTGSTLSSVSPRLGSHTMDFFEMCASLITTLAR
- Sequence (O43741 whole entry): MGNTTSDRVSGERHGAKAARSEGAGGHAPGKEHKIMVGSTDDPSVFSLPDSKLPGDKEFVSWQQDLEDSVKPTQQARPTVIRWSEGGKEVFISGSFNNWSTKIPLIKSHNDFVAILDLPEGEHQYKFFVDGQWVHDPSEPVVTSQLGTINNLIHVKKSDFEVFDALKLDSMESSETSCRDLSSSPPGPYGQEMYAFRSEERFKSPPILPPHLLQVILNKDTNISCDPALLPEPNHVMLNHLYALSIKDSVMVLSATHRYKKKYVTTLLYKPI
- Sequence (P54619 whole entry partner): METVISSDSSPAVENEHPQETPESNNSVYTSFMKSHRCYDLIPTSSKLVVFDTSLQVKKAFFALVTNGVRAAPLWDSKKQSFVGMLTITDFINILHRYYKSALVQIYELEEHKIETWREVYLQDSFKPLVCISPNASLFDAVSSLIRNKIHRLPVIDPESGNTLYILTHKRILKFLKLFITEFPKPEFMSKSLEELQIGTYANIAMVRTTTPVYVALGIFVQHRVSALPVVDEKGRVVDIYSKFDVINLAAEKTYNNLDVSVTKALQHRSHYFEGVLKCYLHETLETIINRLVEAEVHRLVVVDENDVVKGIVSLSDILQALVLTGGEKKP
- assay.overview: Test Example 2: evaluation of an activator for AMP-activated protein kinase (AMPK), LabChip mobility shift assay with CaMKK2-phosphorylated enzyme
- Assay type: biochemical
- condition.context: relative to control (100%), read-out: Emax (maximum rate of increase in activity within the measurement range)
# output: bare number, implied unit %

OCC/C=C/c1cc(F)c2c(c1)CCC2Nc1nc2nc(O[C@@H]3CO[C@H]4[C@@H]3OC[C@H]4O)[nH]c2cc1Cl (stereo partly drawn) [Compound I-1-100]	441
C/C=C/c1cc(F)c2c(c1)CCC2Oc1nc2nc(O[C@@H]3CO[C@H]4[C@@H]3OC[C@H]4O)[nH]c2cc1Cl (stereo partly drawn) [Compound I-1-72]	375
O[C@@H]1CO[C@H]2[C@@H]1OC[C@H]2Oc1nc2nc(OC3CCc4cc(-c5cscn5)cc(F)c43)c(Cl)cc2[nH]1 (stereo partly drawn) [Compound I-1-74]	373
O[C@@H]1CO[C@H]2[C@@H]1OC[C@H]2Oc1nc2nc(N[C@H]3CCc4cc(O[C@H]5CC[C@@H](O)CC5)cc(F)c43)c(Cl)cc2[nH]1 [Compound I-2-01]	646
COCCOc1cnc2c(c1)CCC2Nc1nc2nc(O[C@@H]3CO[C@H]4[C@@H]3OC[C@H]4O)[nH]c2cc1Cl (stereo partly drawn) [Compound I-1-11]	606

Turning to the following compound.
Qu. Which Emax is listed for CCOc1ncc(-c2cc(F)c3c(c2)CC[C@@H]3Nc2nc3nc(O[C@@H]4CO[C@H]5[C@@H]4OC[C@H]5O)[nH]c3cc2Cl)cn1 [Compound I-2-71] ?
Ans. 590

----------
- target.or.test.system: Human AMPK α2ß2γ1 (Homo sapiens, UniProt O43741+P54646)
- Construct: The full length cDNAs of human AMPK ß2 (NM_005399.3) and human AMPK α2 (NM_006252.3); The full length cDNAs of human AMPK ß2 (NM_005399.3); 6xHis (N); made in house; host or cells: Escherichia coli BL21 CodonPlus (DE3)-RIL
- assay.overview: Test Example 2: evaluation of an activator for AMP-activated protein kinase (AMPK), LabChip mobility shift assay with CaMKK2-phosphorylated enzyme
- Format: biochemical
- condition.context: relative to control (100%), read-out: Emax (maximum rate of increase in activity within the measurement range)
Documented Emax across a set of molecules
Numbers only here, please. The scale is %.

// worked examples, Emax included
CC(C)(O)Cn1cc(-c2cc(F)c3c(c2)CC[C@@H]3Nc2nc3nc(O[C@@H]4CO[C@H]5[C@@H]4OC[C@H]5O)[nH]c3cc2Cl)cn1 [Compound I-2-73]	608
COCCNc1cnc2c(c1)CCC2Nc1nc2nc(O[C@@H]3CO[C@H]4[C@@H]3OC[C@H]4O)[nH]c2cc1Cl (some centres unmarked) [Compound I-1-14]	371
CN(C)c1ncc(-c2cc(F)c3c(c2)CC[C@@H]3Nc2nc3nc(O[C@@H]4CO[C@H]5[C@@H]4OC[C@H]5O)[nH]c3cc2Cl)cn1 [Compound I-2-62]	638
CCOCCOc1cc(F)c2c(c1)CC[C@@H]2Nc1nc2nc(O[C@@H]3CO[C@H]4[C@@H]3OC[C@H]4O)[nH]c2cc1Cl [Compound I-1-95]	424
O[C@@H]1CO[C@H]2[C@@H]1OC[C@H]2Oc1nc2nc(NC3CCc4cc(OCC(F)F)cc(F)c43)c(Cl)cc2[nH]1 (some centres unmarked) [Compound I-2-75]	581

Qu. Which Emax reading was recorded for the molecule Cn1cc(-c2cnc3c(c2)CCC3Oc2nc3nc(O[C@@H]4CO[C@H]5[C@@H]4OC[C@H]5O)[nH]c3cc2Cl)cn1 (some centres unmarked) [Compound I-1-15] ?
Ans. 388

Qu. I am curious: what Emax value has been reported for OC1CC=C(c2cc(F)c3c(c2)CCC3Nc2nc3nc(O[C@@H]4CO[C@H]5[C@@H]4OC[C@H]5O)[nH]c3cc2Cl)CC1 (some centres unmarked) [Compound I-2-38] ?
Ans. 725

Qu. Suppose we examine the molecule COC/C=C/c1cc(F)c2c(c1)CCC2Oc1nc2nc(O[C@@H]3CO[C@H]4[C@@H]3OC[C@H]4O)[nH]c2cc1Cl (single isomer, unassigned) [Compound I-1-19] ; what Emax value has been reported?
Ans. 404

Qu. Please look up its Emax: O[C@@H]1CO[C@H]2[C@@H]1OC[C@H]2Oc1nc2nc(NC3CCc4cc(OC5CCNCC5)cc(F)c43)c(Cl)cc2[nH]1 (some centres unmarked) [Compound I-1-93]
Ans. 444

Qu. Query: Emax; subject: Cn1cc(-c2cc(F)c3c(c2)CCC3Nc2nc3nc(O[C@@H]4CO[C@H]5[C@@H]4OC[C@H]5O)[nH]c3cc2Cl)ccc1=O (some centres unmarked) [Compound I-1-106]
Ans. 462

Qu. Query: Emax; subject: CCc1ncc(-c2cc(F)c3c(c2)CC[C@@H]3Nc2nc3nc(O[C@@H]4CO[C@H]5[C@@H]4OC[C@H]5O)[nH]c3cc2Cl)cn1 [Compound I-2-69]
Ans. 598

Qu. Request the reported Emax associated with COCn1cc(-c2cc(F)c3c(c2)CC[C@@H]3Nc2nc3[nH]c(O[C@@H]4CO[C@H]5[C@@H]4OC[C@H]5O)nc3cc2Cl)cn1 [Compound I-2-17]
Ans. 720

Qu. Name the reported Emax value associated with the molecule COCOCCOc1cc(F)c2c(c1)CCC2Nc1nc2nc(O[C@@H]3CO[C@H]4[C@@H]3OC[C@H]4O)[nH]c2cc1Cl (some centres unmarked) [Compound I-2-44]
Ans. 595

Qu. What value of measured Emax is listed for CC(C)(O)CCOc1cc(F)c2c(c1)CCC2Nc1nc2nc(O[C@@H]3CO[C@H]4[C@@H]3OC[C@H]4O)[nH]c2cc1Cl (some centres unmarked) [Compound I-1-88] ?
Ans. 376

Qu. Given COC/C=C/c1cc(F)c2c(c1)CCC2Nc1nc2[nH]c(O[C@@H]3CO[C@H](CO)C3)nc2cc1Cl (some centres unmarked) [Compound I-1-24] , state its recorded Emax.
Ans. 423

Qu. Need Emax, item O[C@@H]1CO[C@H]2[C@@H]1OC[C@H]2Oc1nc2nc(NC3CCc4cc(OC5CCOCC5)cc(F)c43)c(Cl)cc2[nH]1 (some centres unmarked) [Compound I-1-35]
Ans. 402

Qu. Which Emax is listed for CC(C)n1cc(-c2cc(F)c3c(c2)CC[C@@H]3Nc2nc3nc(O[C@@H]4CO[C@H]5[C@@H]4OC[C@H]5O)[nH]c3cc2Cl)ccc1=O [Compound I-2-48] ?
Ans. 737

Qu. # Emax lookup, item O=c1[nH]cc(-c2cc(F)c3c(c2)CC[C@@H]3Nc2nc3nc(O[C@@H]4CO[C@H]5[C@@H]4OC[C@H]5O)[nH]c3cc2Cl)cc1F [Compound I-2-63]
Ans. 653

Qu. Look at this molecule and give its reported Emax. CS(C)(=O)=Nc1cc(F)c2c(c1)CC[C@@H]2Nc1nc2nc(O[C@@H]3CO[C@H]4[C@@H]3OC[C@H]4O)[nH]c2cc1Cl [Compound I-2-08]
Ans. 688

Qu. # query: Emax of entry O[C@@H]1CO[C@H]2[C@@H]1OC[C@H]2Oc1nc2nc(NC3CCc4cc(NCC(F)(F)F)cnc43)c(Cl)cc2[nH]1 (some centres unmarked) [Compound I-1-70]
Ans. 384

Qu. Record request: Emax value, item O[C@@H]1CO[C@H]2[C@@H]1OC[C@H]2Oc1nc2nc(N[C@H]3CCc4cc(C5=CCOC5)cc(F)c43)c(Cl)cc2[nH]1 [Compound I-2-47]
Ans. 724

Qu. Query (molecule): O[C@@H]1CO[C@H]2[C@@H]1OC[C@H]2Oc1nc2nc(N[C@H]3CCc4cc(-c5cnc(C6CC6)nc5)cc(F)c43)c(Cl)cc2[nH]1 [Compound I-2-57] ; field requested: Emax
Ans. 636

Qu. May I ask what Emax has been recorded for Cn1cc(-c2cc(F)c3c(c2)CC[C@@H]3Nc2nc3nc(O[C@@H]4CO[C@H]5[C@@H]4OC[C@H]5O)[nH]c3cc2Cl)cc(F)c1=O [Compound I-2-68] ?
Ans. 600
